# testDetails: yeast display, Sf9 membrane polyspecificity reagent, FACS + sequencing; frameworks hold sequencing errors
measureName: polyreactivity (PSR sort gate)

1. QVQHVESGGGLVQAGGSLRLSCAASGRIFYFNAMGWSSQAPGKERELVAAISGSGGDTYYADSVKGRFTISRDNAKNTVYLQMNSLKPEDTAVYYCAAEVYPWGQGTQVTVAS :: low polyreactivity
2. QVQLVESGGGLVQAGGSLRLSCAASGSILDSNAMGWYRQAPGKERELVAAITSGGSTYYADSVKGRFTISRDNAKNTVYLLMNSLKPEDTAVYYCAAAYLGYGAVQPSYEGGYWGQGTQVTVSS :: low polyreactivity
3. QVQIVESGGGLVQAGGSLRLSCAASGSIFSDYVMGWYRQAPRKERELVATISRGGGSTFYADSVKGRFTISRDYAKITVYLQMNSLKPEDTAVYYCAAPPGPSGAKYDYWGQGTQVSVSS :: low polyreactivity
4. QVQQQESGGGLVQAGGSLRQSYAASGYIFPSLAMGWYRQAPGKEREFVAAIGRGSTNNYADSVKGRFTISRDNAKNTAYQQMNSLKPEDTAVYYSAAAASPLTRHLYWGQGTQVNVSS :: low polyreactivity

* * *

# testDetails: yeast display, Sf9 membrane polyspecificity reagent, FACS + sequencing; frameworks hold sequencing errors
measureName: polyreactivity (PSR sort gate)

Some entries whose results are on file:
1. QVQLVESGGGLVQAGGSLRLSCAASGRIFSLYAMGWYRQAPGKERELVAAISRGGSTYYADSVKGRFTISRDNAKNTVYLQMNSLKPEDTAVYYCAAAPDYRAEYDYWGQGTQVTVSS :: low polyreactivity
2. QVQLVESGGGLVQAGGSLRISCASSGFTIWGYTMVWYRQAPGKERELVAAITSTGSTYYADSVKGRFTISRDNAKNTVYLQMNSLKPEDTAVYYCAAESYYGYDYWGQGTQVTVSS :: low polyreactivity
3. QVQLVESGGGLVQAGGSLRLSCAASGRIFKRNAMGWYRQAPGKDTELVAGISSSGGSTYYADSVKGRFTISRDNAKNTVYLQMNSLKPEDTAVYYCAAVGYGLRPSYDYWGQGTQVTVSS :: high polyreactivity
4. QVQLVESGGGLVQAGGSLRLSCAASGRIYNSNAMGWYRQAPGKERQLVAAITTSGASTYYADSVKGRFTISRDNAKNTVYLQMNSLKPEDTSVYYCATYAVVYPFAMDYWGQGTQVTVSS :: low polyreactivity

Kindly consider the entry below.
// query Query: polyreactivity (PSR sort gate); subject: `QVQLVESGGGLVQAGGSLRLSCAASGFTFDYYAMGWYRQAPGKERELVAAINYSGGSTYYADSVKGRFTISRDNAKNTVYLQMNSLKPEDTAVYYCNAVGYSVFRRYNYWGQGTQVTVSS`
// result high polyreactivity

* * *

# testDetails: yeast display, Sf9 membrane polyspecificity reagent, FACS + sequencing; frameworks hold sequencing errors
measureName: polyreactivity (PSR sort gate)

Here is how some sequences turned out for polyreactivity (PSR sort gate).
1. QVQLVESGGGLVQAGGSLRLSCAASGRIFFVNAMGWYRQAPGKERELVAAISRGGSTNYADSVKGRFTISRDNAKNTVYLQMNSLKPEDTAVFYCNADGSSYWYPVPLDGGDYWGQGTQVTVSS :: low polyreactivity
2. QVQLVESGGGIVQAGGSLRLSCAASGRIFPYNAMGWYIQAPGKERELVAAIRWSGGNTYYADSVKGRFTISRDNAKNTVYLQMNSLKPEDNAVYYCAKYRRSFGFDYWGQGTQVTVSS :: high polyreactivity
3. QDQLVESGGGLVQAGGSLRLSCAPSGFILATNAMGWYRPAPGKERELVAAISYSCGSTNYADSVKGRFTISRDNAKNTVYLQMISLKPVDTAVYYCNDGGSVIWAWYGPVYSWGQGTQVTVSS :: low polyreactivity
4. QVHLEESGGRLVQEGGSLRISCAASGSILRSYAMGWYRQAPGKERELVAVINRGTSTNYADSVKGRFTISRDNAKNTVYLQMNSVKPEDTAVYYCAVAVLPWQLDSESYAEYDYWGEGTQVTVSS :: low polyreactivity
5. QVQLVESVGGLVQAGGSLRLSCAASGRTFRTYTMGWYRQAPGKERELVAAIRSSGGRTYYADSVKGRFTISRDNAKNTVYLQMNSLKPEDTAVYYCAREYRGALHYYYCGQGTQVTVSS :: high polyreactivity

// query Would you mind telling me what polyreactivity (PSR sort gate) value was observed for `QVQLVESGGGLVQAGGSLRLSCAASGNIFWRNAMGWYRQAPGKERELVAAISRRAVSTYYADSVKGRFTISRDNAKNTVYLQMNSLKPEDTAVYYCAARLGGENDYWGQGTQVTVSS` ?
// result high polyreactivity

// query Here is the next sequence: `QVQLVESGGGLVQAGGSLRLSSAASGSTFTGYTMGWYRQATGKERELVASIRTYYADSVKGRFTISRDNAKNTVYLQMNSLKPEDTAVYYCAADFPSATGGYDYWGQGTQVTVSS`
// result low polyreactivity

// query Next sequence up: `QVQLVESGGGLVQAGGSLRLSCAASGSTFLSYAMGWYRQAPGKERELVAAISWSDVNTYYADSVKGRFTISRDNAKNTVYLQMNSLKPEDTAVYYCNARYYLYWGQGTQVTVSS`
// result low polyreactivity

// query Again, but for `QVQLVESGGGIVQAGGSLRLSGAASGFTLTSYAMGWYRQPHGNERELVAGISRGGITYYADSVKGRFTISSDNAKNTVYLQMNSLKPEDTAVYYCATEASFYDPDMYPYGYDYWGQGTQVTVSS`
// result high polyreactivity

// query Next up: `QVQLVESGGGLVQAGGSLRLSCAASGRTLYGYPMGWYRQAPGKERELVAAISKRGTRTYYADSVKGRFTISRDNAKNTVYIQMNSLKPEDTAVYYCAARYPPDEATMVYWGQGTQVTVSS`
// result high polyreactivity

// query One more sequence: `QVQLVESRGGLVQAGGSLRLSCAASGSTFNYYVMGWYRQAPGKERELVAAISRSGTSTYYADSVKGRFTISRDNAKNTVYLQMNSLKPEDTAVYYCAAYQPYYARTELDYWGQGTQVTVSS`
// result high polyreactivity

* * *

# testDetails: yeast display, Sf9 membrane polyspecificity reagent, FACS + sequencing; frameworks hold sequencing errors
measureName: polyreactivity (PSR sort gate)

Some entries whose results are on file:
1. QVQLVESGGALVQAAGSLRLSCAASGRTFRRNTMGWYRQAPGKERELVAAISSSGSSTYYADSVKGRFTISRDNEKNTVYLQMNSLKPEDTAVYYCAATGSRRFGYWGQGTQVTVSS :: high polyreactivity
2. QVQLVESGGGLVQAGGSLRLSCAASGYTFPSNAMGWYRQAPGKERELVAAISSGGRTNYADSVKGRFTISRDNAKNTVYLQMNSLKPEDTGVYYCNADGGPCYPRAYDYWGQGTQVTVSS :: low polyreactivity
3. QFQLVESGGGLVQAGGSLRLSCAASGGTFDPYAMGLYRQAPGKERELVAAINYGGGSTYYADSVKGRFTISRDNAKNTVYLQMNSLKPEDTAVYYCAADGGRLTTSQLAQWEYDYWGQGTQVTVSS :: low polyreactivity
4. QVQLVESGGGLVQAVGSLRLSCAASGSIFGGYAMGWYRQAPGKERELVAAITYSGGSTYYADSVKGRFTISRDNAKNTVYLQMNSLKPEDTAVYYCAAESYDPYYEYDYWGQGTQVTVSS :: high polyreactivity

// query Name the recorded polyreactivity (PSR sort gate) for `QVQLVESGGGLVQAGGSLPLRCAASGLILEYYAMGWYRQAPGKERELVAAITRGGSTYYADSVKWRFTISRDNAKNTVYLQMNSLKPEDTAVYYCAADRYYYEYDYWGQGTQVNVSS` .
// result low polyreactivity

// query Repeat for the following sequence: `QVQLVESGGGLVQAGGSLRLICAASGPTFYYYAMGWYTQAPGKERELVARISRGGSTNYADSVKGRFTISRDNAKNTVYLQMNSLKAEDTAVYYFAITISYTGGYWGYDYWGQGTQVTVSS`
// result high polyreactivity

// query Try the sequence `QVQLVDSGGGLVQAGGSLRISCAASGSIFPSNAMGWYRQAPGKERELVAAINRDGITNYADSVKGRFTISRDNAKNTVYLQMNSLKPEDTAVYYCAAEFAGQWWEYGYWGQGTQVTESS`
// result low polyreactivity

// query // same read-out, input: `QVQLVESGGGLVQAGGSLRLSCAASGRTCKYYAMGWYRQAPGKERELVATITWSGTSTNNADSVKGRFTISRDNAKNTVYLQMNSLKPEETAVYYCAARSKRRNYDYWGQGTQVTVSS`
// result high polyreactivity

// query Consider next the sequence `QVQLVESGGGLVQAGGSLRLSCAASGRNLEYYAMGWYRQAPGQERELVATITSRGDTTHYADSVKGRFTISRDNAKNTVYLQMNSLKPEDTAVYYCAAAYVEYTPYRWYGDDYWGQGTQVTVSS` in the same way.
// result low polyreactivity

// query Note, next up: `QVQLVESGGGLVQAGGSLRLICAASGYTFEYNAMGWSRQAPGKEREFVATITASGDSTYYADSVKGRFTISRDNAKNTVYLQMNSLKPEDTAVYYCATEKRDVYFTAKYDYWGQGTQVTVSS`
// result low polyreactivity

// query What would you report for `QVQLVESGGGLVQAGGSRRLICAASGITFFAYTLGWYRQAPGKERELVASITGSSGGTYYADSVKGRFTISRDNAKNTVYLQMNSLKPEDTAVYYCATAYGRKLLLRGFYDQSHDMDYWGQGTQVTVSS` ?
// result low polyreactivity
